Listed next: entries and their corresponding pKi.
# tgt: T1, human melanocortin 4 receptor (human, UniProt P32245 1-332)
# T1 construct: whole, on cells; cAMP assay on whole BHK cells; also called MC4R; human MC4 receptor
# experiment.summary: competition with 125-NDP-α-MSH, BHK human MC4R membranes
Positions of bridges follow the written chain, without caps; N, C: chain ends. Non-standard residues stand in square brackets, D forms with d. Hyp = O=C(O)[C@@H]1C[C@@H](O)CN1; Orn = NCCC[C@H](N)C(=O)O; Api = NC1(C(=O)O)CCNCC1
Field pKi (float): negative decimal logarithm of the concentration in molar.

Example results:
binder | pKi
cyclo(CH[dF]RWACH[dF]RWA) (disulfide 1-7; SMILES C[C@@H]1NC(=O)[C@H](Cc2c[nH]c3ccccc23)NC(=O)[C@H](CCCNC(=N)N)NC(=O)[C@@H](Cc2ccccc2)NC(=O)[C@H](Cc2c[nH]cn2)NC(=O)[C@@H]2CSSC[C@H](NC1=O)C(=O)N[C@@H](Cc1c[nH]cn1)C(=O)N[C@H](Cc1ccccc1)C(=O)N[C@@H](CCCNC(=N)N)C(=O)N[C@@H](Cc1c[nH]c3ccccc13)C(=O)N[C@@H](C)C(=O)N2, also called c[c[Cys-His-D-Phe-Arg-Trp-Ala-Cys]-His-D-Phe-Arg-Trp-Ala]) [Chem. 5] | 9.00
cyclo(CEH[dF]RWCEH[dF]RW) (disulfide 1-7; SMILES N=C(N)NCCC[C@@H]1NC(=O)[C@@H](Cc2ccccc2)NC(=O)[C@H](Cc2c[nH]cn2)NC(=O)[C@H](CCC(=O)O)NC(=O)[C@@H]2CSSC[C@H](NC(=O)[C@H](Cc3c[nH]c4ccccc34)NC1=O)C(=O)N[C@@H](CCC(=O)O)C(=O)N[C@@H](Cc1c[nH]cn1)C(=O)N[C@H](Cc1ccccc1)C(=O)N[C@@H](CCCNC(=N)N)C(=O)N[C@@H](Cc1c[nH]c3ccccc13)C(=O)N2, also called c[c[Cys-Glu-His-D-Phe-Arg-Trp-Cys]-Glu-His-D-Phe-Arg-Trp]) [Chem. 51] | 9.30
cyclo(CAH[dF][Orn]WCAH[dF][Orn]W) (disulfide 1-7; SMILES C[C@@H]1NC(=O)[C@@H]2CSSC[C@H](NC(=O)[C@H](Cc3c[nH]c4ccccc34)NC(=O)[C@H](CCCN)NC(=O)[C@@H](Cc3ccccc3)NC(=O)[C@H](Cc3c[nH]cn3)NC1=O)C(=O)N[C@@H](C)C(=O)N[C@@H](Cc1c[nH]cn1)C(=O)N[C@H](Cc1ccccc1)C(=O)N[C@@H](CCCN)C(=O)N[C@@H](Cc1c[nH]c3ccccc13)C(=O)N2, also called c[c[Cys-Ala-His-D-Phe-Orn-Trp-Cys]-Ala-His-D-Phe-Orn-Trp]) [Chem. 16] | 9.47
cyclo(C[Hyp][dF]RWC[Hyp][dF]RW) (disulfide 1-6; SMILES N=C(N)NCCC[C@@H]1NC(=O)[C@@H](Cc2ccccc2)NC(=O)[C@@H]2C[C@@H](O)CN2C(=O)[C@@H]2CSSC[C@H](NC(=O)[C@H](Cc3c[nH]c4ccccc34)NC1=O)C(=O)N1C[C@H](O)C[C@H]1C(=O)N[C@H](Cc1ccccc1)C(=O)N[C@@H](CCCNC(=N)N)C(=O)N[C@@H](Cc1c[nH]c3ccccc13)C(=O)N2, also called c[c[Cys-Hyp-D-Phe-Arg-Trp-Cys]-Hyp-D-Phe-Arg-Trp]) [Chem. 27] | 9.00
cyclo(CA[Hyp][dF]RWCA[Hyp][dF]RW) (bridge 1-7 via methylene bridge (S-CH2-S), also called c[c[Cys-Ala-Hyp-D-Phe-Arg-Trp-Cys]-Ala-Hyp-D-Phe-Arg-Trp]; Note: methylene bridge) [Chem. 23] | 7.87

Req: Return value of pKi for input cyclo(C[dK]H[dF]HWCAKKKW) (disulfide 1-7; SMILES C[C@@H]1NC(=O)[C@@H]2CSSC[C@H](NC(=O)[C@H](Cc3c[nH]c4ccccc34)NC(=O)[C@H](CCCCN)NC(=O)[C@H](CCCCN)NC(=O)[C@H](CCCCN)NC1=O)C(=O)N[C@H](CCCCN)C(=O)N[C@@H](Cc1c[nH]cn1)C(=O)N[C@H](Cc1ccccc1)C(=O)N[C@@H](Cc1c[nH]cn1)C(=O)N[C@@H](Cc1c[nH]c3ccccc13)C(=O)N2, also called c[c[Cys-D-Lys-His-D-Phe-His-Trp-Cys]-Ala-Lys-Lys-Lys-Trp]) [Chem. 84] , no commentary.
Resp: 9.72

Req: Return value of pKi for input cyclo(CA[Hyp][dF]RWCA[Hyp][dF]RW) (disulfide 1-7; SMILES C[C@@H]1NC(=O)[C@@H]2CSSC[C@H](NC(=O)[C@H](Cc3c[nH]c4ccccc34)NC(=O)[C@H](CCCNC(=N)N)NC(=O)[C@@H](Cc3ccccc3)NC(=O)[C@@H]3C[C@@H](O)CN3C1=O)C(=O)N[C@@H](C)C(=O)N1C[C@H](O)C[C@H]1C(=O)N[C@H](Cc1ccccc1)C(=O)N[C@@H](CCCNC(=N)N)C(=O)N[C@@H](Cc1c[nH]c3ccccc13)C(=O)N2, also called c[c[Cys-Ala-Hyp-D-Phe-Arg-Trp-Cys]-Ala-Hyp-D-Phe-Arg-Trp]) [Chem. 14] , no commentary.
Resp: 7.52

Req: Return value of pKi for input cyclo(CKH[dF]HWCKKKKW) (disulfide 1-7; SMILES NCCCC[C@@H]1NC(=O)[C@H](CCCCN)NC(=O)[C@H](CCCCN)NC(=O)[C@@H]2CSSC[C@H](NC(=O)[C@H](Cc3c[nH]c4ccccc34)NC(=O)[C@H](CCCCN)NC1=O)C(=O)N[C@@H](CCCCN)C(=O)N[C@@H](Cc1c[nH]cn1)C(=O)N[C@H](Cc1ccccc1)C(=O)N[C@@H](Cc1c[nH]cn1)C(=O)N[C@@H](Cc1c[nH]c3ccccc13)C(=O)N2, also called c[c[Cys-Lys-His-D-Phe-His-Trp-Cys]-Lys-Lys-Lys-Lys-Trp]) [Chem. 77] , no commentary.
Resp: 9.14

Req: Return value of pKi for input cyclo(C[Api]H[dF]RWC[Api]H[dF]RW) (disulfide 1-7; SMILES N=C(N)NCCC[C@@H]1NC(=O)[C@@H](Cc2ccccc2)NC(=O)[C@H](Cc2c[nH]cn2)NC(=O)C2(CCNCC2)NC(=O)[C@@H]2CSSC[C@H](NC(=O)[C@H](Cc3c[nH]c4ccccc34)NC1=O)C(=O)NC1(CCNCC1)C(=O)N[C@@H](Cc1c[nH]cn1)C(=O)N[C@H](Cc1ccccc1)C(=O)N[C@@H](CCCNC(=N)N)C(=O)N[C@@H](Cc1c[nH]c3ccccc13)C(=O)N2, also called c[c[Cys-ACP-His-D-Phe-Arg-Trp-Cys]-ACP-His-D-Phe-Arg-Trp]) [Chem. 47] , no commentary.
Resp: 9.14
